Assignment: determine reported IC50 for the given molecules.
Provide only the numeric value, understood in nM.

The reported IC50 value, Carbonic anhydrase 2 (Homo sapiens), for CC(C)(C)C(=O)Oc1ccc2oc(S(N)(=O)=O)cc2c1 reads 3

The reported IC50 value, Carbonic anhydrase 2 (Homo sapiens), for CC(=O)Oc1ccc2oc(S(N)(=O)=O)cc2c1 reads 6.5

The reported IC50 value, Carbonic anhydrase 2 (Homo sapiens), for NS(=O)(=O)c1cc2ccc(O)cc2o1 reads 11

The reported IC50 value, Carbonic anhydrase 2 (Homo sapiens), for NS(=O)(=O)c1cc2cc(O)ccc2o1 reads 6.5

The reported IC50 value, Carbonic anhydrase 2 (Homo sapiens), for Nc1ccc2oc(S(N)(=O)=O)cc2c1 reads 9

The reported IC50 value, Carbonic anhydrase 2 (Homo sapiens), for COc1ccc2cc(S(N)(=O)=O)n(C)c2c1 reads 110

The reported IC50 value, Carbonic anhydrase 2 (Homo sapiens), for CC(=O)Oc1ccc2cc(S(N)(=O)=O)oc2c1 reads 5.5

The reported IC50 value, Carbonic anhydrase 2 (Homo sapiens), for NS(=O)(=O)c1cc2cc3c(cc2[nH]1)OCO3 reads 25

The reported IC50 value, Carbonic anhydrase 2 (Homo sapiens), for NS(=O)(=O)c1cc2ccccc2[nH]1 reads 45

The reported IC50 value, Carbonic anhydrase 2 (Homo sapiens), for NS(=O)(=O)c1cc2cc(O)ccc2[nH]1 reads 22

The reported IC50 value, Carbonic anhydrase 2 (Homo sapiens), for COc1ccc2cc(S(N)(=O)=O)[nH]c2c1 reads 60

The reported IC50 value, Carbonic anhydrase 2 (Homo sapiens), for COc1ccc2cc(S(N)(=O)=O)oc2c1 reads 15

The reported IC50 value, Carbonic anhydrase 2 (Homo sapiens), for NS(=O)(=O)c1cc2ccc(O)cc2[nH]1 reads 30

###

Assignment: determine reported GSH for the given compounds.
assay: Extent of reaction with 20 equiv of reduced glutathione (GSH) in 20 hours at pH 7.4 and 37 degree C
Provide only the numeric value, understood in %.

The reported GSH of the compound Cc1c(S(N)(=O)=O)oc2cc(O)ccc12 was 47

The reported GSH of the compound NS(=O)(=O)c1cc2cc(O)ccc2[nH]1 was 13

The reported GSH of the compound COc1ccc2oc(S(N)(=O)=O)cc2c1 was 10

###

test: Extent of reaction with 20 equiv of reduced glutathione (GSH) in 20 hours at pH 7.4 and 37 degree C
measurementKind: GSH (%)
Provide only the numeric value, understood in %.

The reported GSH of the compound NS(=O)(=O)c1cc2ccc(O)cc2o1 was 23

The reported GSH of the compound COc1ccc2cc(S(N)(=O)=O)n(C)c2c1 was 37

The reported GSH of the compound NS(=O)(=O)c1cc2ccc(O)cc2s1 was 2.9

The reported GSH of the compound NS(=O)(=O)c1cc2ccc(O)cc2[nH]1 was 17

The reported GSH of the compound NS(=O)(=O)c1cc2ccccc2o1 was 10

The reported GSH of the compound Nc1ccc2cc(S(N)(=O)=O)oc2c1 was 17

The reported GSH of the compound NS(=O)(=O)c1cc2cc(O)ccc2o1 was 9

###

assay: Extent of reaction with 5 equiv of reduced glutathione (GSH) between 16 and 22 hours at pH 7.4 and 37 degree C
Everything with GSH lower than 0.7% is NOT MET; everything else, including exactly 0.7%, is MET.

Decide: GSH of NS(=O)(=O)c1cc2ccccc2[nH]1 >= 0.7%?
NOT MET

Decide: GSH of Nc1ccc2oc(S(N)(=O)=O)cc2c1 >= 0.7%?
MET

Decide: GSH of NS(=O)(=O)c1cc2cc(O)ccc2o1 >= 0.7%?
MET

Decide: GSH of Nc1ccc2cc(S(N)(=O)=O)oc2c1 >= 0.7%?
MET

Decide: GSH of NS(=O)(=O)c1cc2ccccc2o1 >= 0.7%?
NOT MET

Decide: GSH of NS(=O)(=O)c1cc2ccc(O)cc2[nH]1 >= 0.7%?
MET
